Biological target: Vascular endothelial growth factor receptor 3 (Homo sapiens)
Sequence (P35916 whole entry): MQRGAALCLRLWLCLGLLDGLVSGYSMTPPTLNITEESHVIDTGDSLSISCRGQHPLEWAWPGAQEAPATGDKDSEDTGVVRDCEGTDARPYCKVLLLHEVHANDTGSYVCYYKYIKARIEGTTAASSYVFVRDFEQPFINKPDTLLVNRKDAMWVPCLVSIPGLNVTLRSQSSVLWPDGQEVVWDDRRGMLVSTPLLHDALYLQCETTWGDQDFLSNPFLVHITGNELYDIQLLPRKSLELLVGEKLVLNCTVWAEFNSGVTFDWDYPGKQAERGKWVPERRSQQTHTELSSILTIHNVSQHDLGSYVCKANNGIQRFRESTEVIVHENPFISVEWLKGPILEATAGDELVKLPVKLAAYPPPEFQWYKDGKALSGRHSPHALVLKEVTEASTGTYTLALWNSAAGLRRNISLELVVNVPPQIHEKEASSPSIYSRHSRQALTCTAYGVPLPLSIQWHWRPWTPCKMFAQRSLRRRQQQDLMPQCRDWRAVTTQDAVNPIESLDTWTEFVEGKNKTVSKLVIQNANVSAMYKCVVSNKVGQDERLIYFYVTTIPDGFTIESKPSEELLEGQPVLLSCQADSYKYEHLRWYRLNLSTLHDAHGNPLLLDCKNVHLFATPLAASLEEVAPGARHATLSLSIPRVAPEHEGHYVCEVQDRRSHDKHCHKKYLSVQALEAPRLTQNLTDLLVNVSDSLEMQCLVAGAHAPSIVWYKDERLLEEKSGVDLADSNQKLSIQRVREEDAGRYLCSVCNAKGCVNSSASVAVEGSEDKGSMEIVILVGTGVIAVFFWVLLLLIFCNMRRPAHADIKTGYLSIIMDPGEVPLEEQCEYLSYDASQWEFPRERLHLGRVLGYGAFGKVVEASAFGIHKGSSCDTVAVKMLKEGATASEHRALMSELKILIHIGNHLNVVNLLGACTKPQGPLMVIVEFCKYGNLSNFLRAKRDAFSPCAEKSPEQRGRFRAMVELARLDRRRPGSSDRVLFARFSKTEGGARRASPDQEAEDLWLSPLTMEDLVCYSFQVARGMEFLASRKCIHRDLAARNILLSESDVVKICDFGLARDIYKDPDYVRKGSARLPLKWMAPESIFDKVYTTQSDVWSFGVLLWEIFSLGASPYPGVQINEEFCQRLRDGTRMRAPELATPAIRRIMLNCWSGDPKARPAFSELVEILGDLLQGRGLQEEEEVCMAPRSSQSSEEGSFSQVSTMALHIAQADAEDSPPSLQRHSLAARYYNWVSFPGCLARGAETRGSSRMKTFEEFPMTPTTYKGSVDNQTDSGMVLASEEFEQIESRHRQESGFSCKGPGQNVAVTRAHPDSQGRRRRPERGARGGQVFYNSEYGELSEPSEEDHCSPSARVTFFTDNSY
measure_name: pIC50
A value of pIC50 is the negative decimal logarithm of a concentration given in moles per litre.

The compound O=C(Nc1cccc(-c2cncc3ccccc23)c1)c1ccccc1NCc1ccncc1 , tested on Vascular endothelial growth factor receptor 3 (Homo sapiens), showed pIC50 of 7.28

====

Target: UniProtKB P35968
Sequence (P35968 whole entry): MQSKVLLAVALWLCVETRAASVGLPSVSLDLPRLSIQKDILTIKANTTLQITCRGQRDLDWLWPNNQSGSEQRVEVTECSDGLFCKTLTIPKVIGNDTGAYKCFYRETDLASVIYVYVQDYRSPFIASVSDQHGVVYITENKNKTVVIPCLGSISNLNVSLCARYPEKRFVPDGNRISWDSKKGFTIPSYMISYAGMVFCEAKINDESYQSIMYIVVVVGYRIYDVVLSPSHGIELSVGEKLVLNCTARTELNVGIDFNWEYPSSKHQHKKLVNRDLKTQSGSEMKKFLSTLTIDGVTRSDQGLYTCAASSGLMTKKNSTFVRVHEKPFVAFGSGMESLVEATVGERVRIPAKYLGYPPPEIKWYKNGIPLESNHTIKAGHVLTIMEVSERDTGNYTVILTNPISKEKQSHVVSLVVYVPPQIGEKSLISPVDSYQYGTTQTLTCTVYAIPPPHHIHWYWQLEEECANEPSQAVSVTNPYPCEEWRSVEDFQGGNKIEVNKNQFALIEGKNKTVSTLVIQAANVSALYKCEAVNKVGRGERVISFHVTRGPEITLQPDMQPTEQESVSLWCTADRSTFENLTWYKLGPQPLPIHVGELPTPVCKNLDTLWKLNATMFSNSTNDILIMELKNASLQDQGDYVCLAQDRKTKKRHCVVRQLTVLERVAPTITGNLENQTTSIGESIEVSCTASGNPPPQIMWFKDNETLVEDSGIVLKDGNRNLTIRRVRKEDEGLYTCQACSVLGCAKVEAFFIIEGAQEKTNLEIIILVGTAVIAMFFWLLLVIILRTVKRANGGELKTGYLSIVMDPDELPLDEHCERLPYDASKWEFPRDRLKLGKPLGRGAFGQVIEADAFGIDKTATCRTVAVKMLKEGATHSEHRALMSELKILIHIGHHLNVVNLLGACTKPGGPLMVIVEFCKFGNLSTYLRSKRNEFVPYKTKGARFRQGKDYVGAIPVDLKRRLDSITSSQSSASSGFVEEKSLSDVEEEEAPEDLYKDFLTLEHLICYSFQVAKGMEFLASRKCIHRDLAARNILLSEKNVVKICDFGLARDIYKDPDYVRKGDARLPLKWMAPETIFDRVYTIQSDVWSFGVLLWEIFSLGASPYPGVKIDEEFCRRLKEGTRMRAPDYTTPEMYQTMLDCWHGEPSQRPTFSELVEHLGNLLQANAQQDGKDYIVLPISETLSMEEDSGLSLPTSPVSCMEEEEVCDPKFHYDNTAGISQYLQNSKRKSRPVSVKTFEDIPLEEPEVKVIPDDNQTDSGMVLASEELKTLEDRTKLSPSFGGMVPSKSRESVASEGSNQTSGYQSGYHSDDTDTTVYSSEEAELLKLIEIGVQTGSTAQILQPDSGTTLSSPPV
measure_name: pIC50
A value of pIC50 is the negative decimal logarithm of a concentration given in moles per litre.

The compound O=C(Nc1cccc(-c2cncc3ccccc23)c1)c1ccccc1NCc1ccncc1 , tested on UniProtKB P35968, showed pIC50 of 8.94

====

Assay: Mean % inhibition of induced angiogenesis by Vascular endothelial growth factor (VEGF) at a peroral dose of 50 mg/kg in mice
Assay type: functional
Settings: Mus musculus, route oral
measure_name: inhibition in vivo at 50 mg/kg (%)
Give your result in % as a bare value.

molecule: O=C(Nc1cccc(C(F)(F)F)c1)c1ccccc1NCc1ccncc1
measure_name: inhibition in vivo at 50 mg/kg
numeric_readout: 84

inhibition in vivo at 50 mg/kg in this record for COc1cc2/c(=N/c3ccc(Br)cc3F)nc[nH]c2cc1OCC1CCN(C)CC1 [VANDETANIB] : 71

inhibition in vivo at 50 mg/kg in this record for Clc1ccc(Nc2nnc(Cc3ccncc3)c3ccccc23)cc1.O=C(O)CCC(=O)O : 68

inhibition in vivo at 50 mg/kg in this record for O=C(Nc1cccc(-c2cncc3ccccc23)c1)c1ccccc1NCc1ccncc1 : 100

Values were extracted from ChEMBL document CHEMBL1135689.
